Test system: MCF7
Assay: Cytotoxicity against human MCF7 cells after 48 hrs by MTT assay
Assay type: functional, cell-based
Conditions: MCF7, 48 h
pIC50: −log10 of the molar value.
# key: entry, value: pIC50
OBSERVABLE: pIC50

C=C(C)[C@@H]1CC[C@]2(C(=O)O)CC[C@]3(C)[C@H](CC[C@@H]4[C@@]5(C)[C@H](C(=O)O)[C@H](O)C(C)(C)[C@@H]5CC[C@]43C)[C@@H]12 [EPICEANOTHIC ACID] | < 4.40
C=C(CC[C@@H](C(=O)S)[C@H]1CC[C@H]2C3=CC[C@H]4[C@H](C)[C@@H](O[C@@H]5O[C@@H](C)[C@H](O)[C@@H](O)[C@@H]5O)[C@H](OC(C)=O)C[C@]4(C)[C@H]3CC[C@]12C)C(C)C [FRUTICOSIDE F] | < 4.40

====

Test system: SW480
Experiment: Cytotoxicity against human SW480 cells after 48 hrs by MTT assay
Format: functional, cell-based
Conditions: SW480, 48 h
pIC50: −log10 of the molar value.
OBSERVABLE: pIC50

C=C(C)[C@@H]1CC[C@]2(C(=O)O)CC[C@]34C(=O)O[C@]5(CC[C@@H]3[C@@H]12)[C@@]4(C)CC[C@]12O[C@]51[C@@H](C)CC2(C)C | 4.70
C=C(CC[C@@H](C(=O)O)[C@H]1CC[C@H]2C3=CC[C@H]4[C@H](C)[C@@H](O)[C@H](O)C[C@]4(C)[C@H]3CC[C@]12C)C(C)C [FRUTICOSIDE B] | < 4.40
C=C(CC[C@@H](C(=O)O)[C@H]1CC[C@H]2C3=CC[C@H]4[C@H](C)[C@@H](O[C@@H]5O[C@@H](C)[C@H](O)[C@@H](O)[C@@H]5O)[C@H](OC(C)=O)C[C@]4(C)[C@H]3CC[C@]12C)C(C)C [FRUTICOSIDE D] | < 4.40
C=C(C)[C@@H]1CC[C@]2(C(=O)O)CC[C@]3(C)[C@H](CC[C@@H]4[C@@]5(C)[C@H](C=O)[C@H](O)C(C)(C)[C@@H]5CC[C@]43C)[C@@H]12 | < 4.40
C=C(CC[C@@H](C(=O)O)[C@H]1CC[C@H]2C3=CC[C@H]4[C@H](C)[C@@H](O[C@@H]5O[C@@H](C)[C@H](O)[C@@H](O)[C@@H]5O)[C@H](O)C[C@]4(C)[C@H]3CC[C@]12C)C(C)C [FRUTICOSIDE C] | < 4.40
C=C(C)[C@@H]1CC[C@]2(C(=O)O)CC[C@]3(C)[C@H](CC[C@@H]4[C@@]5(C)[C@H](C(=O)O)[C@H](O)C(C)(C)[C@@H]5CC[C@]43C)[C@@H]12 [EPICEANOTHIC ACID] | < 4.40
C=C(CC[C@@H](CO)[C@H]1CC[C@H]2C3=CC[C@H]4[C@H](C)[C@@H](O)[C@H](O)C[C@]4(C)[C@H]3CC[C@]12C)C(C)C [FRUTICOSIDE A] | 4.74
C=C(CC[C@@H](C(=O)S)[C@H]1CC[C@H]2C3=CC[C@H]4[C@H](C)[C@@H](O[C@@H]5O[C@@H](C)[C@H](O)[C@@H](O)[C@@H]5O)[C@H](OC(C)=O)C[C@]4(C)[C@H]3CC[C@]12C)C(C)C [FRUTICOSIDE F] | < 4.40

Data origin: ChEMBL document CHEMBL1781939
